measured endpoint: melting point

Give the measured melting point for `CCOC=Nc1c2oc3ccccc3c2nn1C`
120 to 122 °C

Give the measured melting point for `COC(=O)N1Cc2c(-c3ccc(F)cc3)ncn2-c2ccccc21`
156 to 160 °C

Give the measured melting point for `N#Cc1cnc2cc(-c3ccc(CN4CCOCC4)cc3)sc2c1Nc1ccc(Oc2ccccc2)cc1`
254 to 256 °C

Give the measured melting point for `CCCOc1ccccc1-c1nc2nc(N(CC)CCO)ncc2c(=O)[nH]1`
141 to 142 °C

Give the measured melting point for COc1ccc(C(O)(c2ccc(OC)cc2)C2CCN(CCC3CN(C)C(=O)O3)CC2)cc1 (stereo unspecified)
145 to 147 °C

Give the measured melting point for `CNc1ccc(-c2cnc3[nH]c(=O)n(CC4CCOCC4)c3n2)cn1`
> 260 °C

Give the measured melting point for CC(=O)OCC1OC(n2cnc3c(NN4CCCCC4)nc(N)nc32)C(OC(C)=O)C1OC(C)=O (stereo unspecified)
77 to 79 °C

Give the measured melting point for C=CCOC1C(OC2C(COCc3ccccc3)OC(OC)C(OCc3ccccc3)C2OCc2ccccc2)OC(CO)C(O)C1OCc1ccccc1 (stereo unspecified)
119 to 120 °C

Give the measured melting point for COC(=O)C1=C(C)NC(c2csc(C)n2)=NC1c1ccc(F)cc1Cl (stereo unspecified)
128 to 130 °C

Give the measured melting point for `COC(=O)c1sc(OC)c(C)c1O`
63 to 65 °C

Give the measured melting point for `CCOC(=O)Cc1nc2cc(Cl)ccc2n1CC`
44 to 45 °C
